Sourced from paper PMC7816197

Subject of test: human NAPE-PLD (Homo sapiens, UniProt Q6IQ20)
Sequence (Q6IQ20 whole entry): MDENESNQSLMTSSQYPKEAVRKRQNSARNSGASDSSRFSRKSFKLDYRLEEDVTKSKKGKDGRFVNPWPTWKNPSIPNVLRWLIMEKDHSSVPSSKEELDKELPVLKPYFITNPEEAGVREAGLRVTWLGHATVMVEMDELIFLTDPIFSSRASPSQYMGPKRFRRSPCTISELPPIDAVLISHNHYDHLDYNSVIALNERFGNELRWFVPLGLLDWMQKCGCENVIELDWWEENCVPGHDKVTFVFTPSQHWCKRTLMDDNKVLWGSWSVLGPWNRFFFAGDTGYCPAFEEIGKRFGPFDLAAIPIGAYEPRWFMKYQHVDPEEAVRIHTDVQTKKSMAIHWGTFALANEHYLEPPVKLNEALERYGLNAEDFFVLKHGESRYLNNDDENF
Method description: NAPE-PLD PED6 surrogate substrate activity assay
Assay type: biochemical
Condition notes: PED6 assay, human NAPE-PLD
Measured attribute: inhibitory activity in words

- O=C(NCC1CC1)c1cc(N2CCOCC2)nc(Cl)n1: inactive
- O=C(NCC1CC1)c1cc(N2CCOCC2)ncn1: inactive

----------
Subject of test: UniProt Q6IQ20
Measured attribute: IC50

* O=c1[nH]c(=O)c2cc(S(=O)(=O)Nc3ccc(-c4ccncc4)cc3)ccc2[nH]1 | 54 µM

----------
Subject of test: UniProtKB Q6IQ20
Method description: NAPE-PLD PED6 surrogate substrate activity assay
Assay type: biochemical
Condition notes: compared to 2
Measured attribute: fold increase in potency/activity (fold)

* O=C(NCC1CC1)c1cc(N2CCOCC2)nc(N2CCCC2Cc2ccccc2)n1 (racemic) | 2
* CN(CCc1ccccc1)c1nc(C(=O)NCC2CC2)cc(N2CCCC(F)(F)C2)n1 | 2
* CC(C)N(CCc1ccccc1)c1nc(C(=O)NCC2CC2)cc(N2CCOCC2)n1 | 2
* O=C(NCC1CC1)c1cc(N2CCOCC2)nc(N2CCCC(c3ccccc3)C2)n1 (racemic) | 2
* CN(C)c1cc(C(=O)NCC2CC2)nc(N(C)CCc2ccccc2)n1 | 2
* O=C(NCC1CC1)c1cc(N2CC[C@H](O)C2)nc(N2CCC[C@@H](c3ccccc3)C2)n1 | 10
